Measurement protocol: NCI Yeast Anticancer Drug Screen. Data for the wt1 strain (AID 149);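 further: 0% = growth of vehicle-treated wt1 cultures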
Recorded conditions: S. cerevisiae wt1 strain (SPY 50644) growth inhibition; at 100.0 µM; stronger effect = higher value
Compounds without any hit were thinned out: in the full panel of roughly 79,000, 15% have a hit.
Reported property: growth inhibition (%)
One number for each entry, in %.

Worked set:
Compound: Cc1cc(C(C)(C)CC(C)(C)C)cc(O)c1O
growth inhibition / %: 98
--
Compound: Cc1ccccc1NC(=O)Cc1csc(N/N=C2\NC(=O)/C(=C/c3cccc([N+](=O)[O-])c3)S2)n1
growth inhibition / %: 26
--
Compound: CCCCOC(=O)CSSCC(=O)OCCCC
growth inhibition / %: 97
--
Compound: NNC(=S)Nc1cccc(Cl)c1
growth inhibition / %: 86
--
Compound: O=C1CC(=O)N(C2CCCCC2)C(=O)N1c1ccccc1S(=O)(=O)Oc1ccccc1
growth inhibition / %: 51

List reported growth inhibition for each of these compounds:
1. O=C(O)c1ccccc1.[Ag]
2. CCC(NC(C)c1ccccc1)C(=O)c1ccc(OCc2ccccc2)c(OCc2ccccc2)c1 (configuration not stated)

1: 99; 2: -15
